# credit: patent US9776962B2

target: human GPR40 (Homo sapiens, UniProt O14842); construct: expressed in transfected cells; assay: Evaluation of human GPR40 agonist activity with increase in intracellular Ca2+ concentration as an index (FLIPR); format: cell-based; conditions: test compound 1 μM; CHO(dhfr−) cells stably expressing human GPR40; 100% = 10 μM compound of Example 153, 0% = DMSO
Sequence (O14842 whole entry): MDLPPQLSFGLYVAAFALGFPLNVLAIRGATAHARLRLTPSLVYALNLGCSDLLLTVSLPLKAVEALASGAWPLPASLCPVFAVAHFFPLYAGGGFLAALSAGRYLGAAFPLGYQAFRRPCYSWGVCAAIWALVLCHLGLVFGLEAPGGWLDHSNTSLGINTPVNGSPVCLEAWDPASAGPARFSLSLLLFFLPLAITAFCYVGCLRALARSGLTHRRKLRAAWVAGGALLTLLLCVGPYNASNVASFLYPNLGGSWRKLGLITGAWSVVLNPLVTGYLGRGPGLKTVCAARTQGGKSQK
reported_metric: activation at 1 µM

# count of solved cases: 2
| compound | activation at 1 µM |
| --- | --- |
| CCc1ccc(C(=O)N(CC(C)(C)C)c2cccc(C)n2)c(N2CCC(COc3cc(C(CC(=O)O)C4CC4)ccn3)CC2)c1 (stereo not drawn) | 90% |
| COc1ccc(C(=O)N(CC(C)(C)OC)c2ccccc2)c(N2CCC(COc3cc(C(CC(=O)O)C4CC4)ccn3)CC2)c1 (stereo not drawn) | 95% |

Q: Entry under review: COc1ccc(C(=O)N(CC(C)(C)C)c2ccnc(C)n2)c(N2CCC(COc3cc(C(CC(=O)O)C4CC4)ccn3)CC2)c1 (stereo not drawn) . Reported activation at 1 µM?
Result: 101%

====

Biological target: human GPR40 (Homo sapiens)
Construct: expressed in transfected cells
Test: Evaluation of human GPR40 agonist activity with increase in intracellular Ca2+ concentration as an index (FLIPR)
Format: cell-based
Conditions: test compound 1 μM; CHO(dhfr−) cells stably expressing human GPR40; 100% = 10 μM compound of Example 153, 0% = DMSO
Text: Plasmid hGPR40/pAKKO-1.11H for mammalian cells expression, wherein cDNA fragment (SEQ ID NO: 1) encoding the full-length human GPR40 was incorporated into an expression vector pAKKO-1.11H (Biochimica et Biophysica Acta vol. 1219 pp. 251-259 (1994)), was transfected into CHO-dhfr(−) cells (ATCC, CRL-9096) by using Lipofectamine 2000 (Invitrogen:11668-019). […]
reported_metric: activation at 1 µM (%)
Use % as the unit, but write only the number.

| compound | quantity_unit | val |
| --- | --- | --- |
| COc1ccc(C(=O)N(CC(F)(F)F)c2ccnc(C)n2)c(N2CCC(COc3cc(C(CC(=O)O)C4CC4)ccn3)CC2)c1 (stereo not shown) [Example 239] | % | 100 |
| COc1ccc(C(=O)N(CC(C)(C)C)c2ccccn2)c(N2CCC(COc3cc(C(CC(=O)O)C4CC4)ccn3)CC2)c1 (stereo not shown) [Example 111] | % | 100 |
| COc1ccc(C(=O)N2C[C@@H](C)O[C@@H](C)C2)c(N2CCC(COc3cccc(C(CC(=O)O)C4CC4)c3)CC2)c1 (stereo partly shown) [Example 5] | % | 85 |
| COc1ccc(C(=O)N(CC(F)(F)F)c2nccc(C)n2)c(N2CCC(COc3cc(C(CC(=O)O)C4CC4)ccn3)CC2)c1 (stereo not shown) [Example 169] | % | 106 |
| Cc1cccc(N(CC(C)(C)C)C(=O)c2ccc(C#N)cc2N2CCC(COc3cc(C(CC(=O)O)C4CC4)ccn3)CC2)n1 (stereo not shown) [Example 260] | % | 89 |
| COc1ccc(C(=O)N(C)CC(C)C)c(N2CCC(COc3cccc(C(CC(=O)O)C4CC4)c3)CC2)c1 (stereo not shown) [Example 1] | % | 97 |
| COc1ccc(C(=O)N(CC(C)(C)C)c2cccc(C)n2)c(N2CCC(COc3cc(C(CC(=O)O)C4CC4)ccn3)CC2)c1F (stereo not shown) [Example 252] | % | 87 |
| COc1ccc(C(=O)N(CC(C)(C)C)c2cccc(C)n2)c(N2CCC(COc3cccc(C(CC(=O)O)OC)c3)CC2)c1 (stereo not shown) [Example 269] | % | 103 |

Q: Entry under review: COc1ccc(C(=O)N(CC(F)(F)C(F)(F)F)c2ncccn2)c(N2CCC(COc3cc(C(CC(=O)O)C4CC4)ccn3)CC2)c1 (stereo not shown) [Example 170] . Reported activation at 1 µM?
Result: 104

Q: Entry under review: COc1ccc(C(=O)N(CC(F)(F)F)c2cncc(C(F)(F)F)c2)c(N2CCC(COc3cc(C(CC(=O)O)C4CC4)ccn3)CC2)c1 (stereo not shown) [Example 236] . Reported activation at 1 µM?
Result: 91

Q: Entry under review: COc1ccc(C(=O)N(CC(C)(F)F)c2ccccn2)c(N2CCC(COc3cc(C(CC(=O)O)C4CC4)ccn3)CC2)c1 (stereo not shown) [Example 126] . Reported activation at 1 µM?
Result: 99

Q: Entry under review: COc1ccc(C(=O)N(CC(F)(F)F)c2nc(C)cc(C)n2)c(N2CCC(COc3cc(C(CC(=O)O)C4CC4)ccn3)CC2)c1 (stereo not shown) [Example 168] . Reported activation at 1 µM?
Result: 100

Q: Entry under review: COc1ccc(C(=O)N(CC(C)(C)C)c2cccc(C)n2)c(N2CCC(COc3cccc(C(C)(C)CC(=O)O)c3)CC2)c1 [Example 277] . Reported activation at 1 µM?
Result: 110
